Provenance of the data: paper PMC9482650

- Tested On: MAGI1_2, Q96QZ7
- Sequence (Q96QZ7 456-580): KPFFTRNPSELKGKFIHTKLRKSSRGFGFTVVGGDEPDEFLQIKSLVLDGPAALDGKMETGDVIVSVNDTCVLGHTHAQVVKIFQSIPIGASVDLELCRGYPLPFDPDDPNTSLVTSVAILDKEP
- Run Description: holdup assay
- Parameters: key: below the threshold = too weak to quantify, mostly under pKd 3.1 to 4
- Setup Conditions: plain residues with an end cap or a label only (N-terminal biotin on a linker: ttds)
Measurement Name: pKd
One number for each entry.

{"Binder": "SRPQRTQTQV [HPV67-E6, A4U7F2]", "Test Value": 5.22}
{"Binder": "VLRLQSETSV [VANGL1, Q8TAA9]", "Test Value": 4.37}
{"Binder": "STLTIFETAL [ABCC4, O15439]", "Test Value": 3.86}
{"Binder": "ERKLSSESQV [LRP4, O75096]", "Test Value": 4.01}

Would you be so kind as to report pKd for each listed record?
1. SSRTRRETQL [HPV16-E6, P03126]
2. SVWLRKETRV [CYSLTR2, Q9NS75]

### Response
[5.91, 5.63]

### Prompt For GQDSREETQL [KCNT2, Q6UVM3] , what is its reported pKd?
### Response 4.5
